System: Salmonella enterica serovar Typhimurium SL1344
Conditions: LPM pH 5.8
Counter-ions that a name gives are not always drawn.
measurement-name: MIC

Use these answered entries as a reference point.
compound	test-target	MIC
CN(C)[C@@H]1C(O)=C(C(N)=O)C(=O)[C@@]2(O)C(O)=C3C(=O)c4c(O)ccc(Cl)c4[C@@](C)(O)[C@H]3C[C@@H]12 [CHLORTETRACYCLINE HYDROCHLORIDE]	Salmonella enterica serovar Typhimurium SL1344	≤ 0.78 µM
CN[C@H]1CC[C@@H](c2ccc(Cl)c(Cl)c2)c2ccccc21 [SERTRALINE HYDROCHLORIDE]	Salmonella enterica serovar Typhimurium SL1344	> 50 µM
CO/N=C(\C(=O)N[C@@H]1C(=O)N2C(C(=O)OCOC(=O)C(C)(C)C)=C(/C=C\c3scnc3C)CS[C@H]12)c1csc(N)n1	Salmonella enterica serovar Typhimurium SL1344	50 µM

Now examine the next entry.
Incoming: Value wanted: MIC (Salmonella enterica serovar Typhimurium SL1344) of entry CCOc1ccc(Cc2nccc3cc(OCC)c(OCC)cc23)cc1OCC [ETHAVERINE HYDROCHLORIDE]
Outgoing: > 50 µM
